Assay: Toxicity to the cell monolayer (MTD) in the plaque reduction assay
Assay type: cell-based
Details: monkey; minimum concentration which killed the cell monolayer; Vero cells, 6 days
measurement type: MCC at 144 h

compound="Cn1c(=O)c(/C=C/Br)cn([C@H]2C[C@H](O)[C@@H](CO)O2)c1=O [Example 1]" measurement_type="MCC at 144 h" result="> 100 µg/mL"

###

Assay: In vivo blood level study: antiviral activity of mouse serum titrated in plaque inhibition assays
Set-up: species or system Balb/c mice
Conditions: po, 100 mg/kg
measurement type: concentration at 2 h

molecule="Cn1c(=O)c(/C=C/Br)cn([C@H]2C[C@H](O)[C@@H](CO)O2)c1=O [Example 1]" result="3100 ng/mL"
